quantity measured: IC50 (nM)
Express your answer in nM, writing the number without its unit.

Task: Hi! What's the reported IC50 for CCS(=O)(=O)Nc1ccc2c(c1)/C(=C(/Nc1ccc(CN3CCCCC3)cc1)c1ccccc1)C(=O)N2 on Mammalian Ste20-like kinase 4 (MST4) (Homo sapiens, UniProt Q9P289)?
Result: 6.18
